System: OVCAR-8 ovarian
Assay: NCI-60 one-dose screen, 48 h
Settings: 10 µM unless noted
Protocol: Growth inhibition of the OVCAR-8 human tumor cell line is measured as a screen for anti-cancer activity. Cells are grown in 96 well plates and exposed to the test compound for 48 hours. Compounds are tested at a single concentration, which is 10^-5 M for most compounds. The reported endpoint is percent growth (GI% or GIPRCNT), where numbers from 0 - 100% represent growth inhibition, and numbers from -100% - 0 represent cell death. For example, a value of 40 represents 60% growth inhibition. […]
Compounds without any hit were thinned out: in the full panel of roughly 83,000, 20% have a hit. Calls of active or inactive are those of the source. Rule for the calls: active = growth percent below 10; inactive = the rest.
Select the correct class. Options are yes = active, no = inactive and nothing else.

- COMPOUND: "CN1CCN(Cc2ccc(NC(=O)c3cncc(C#Cc4cnc(N)c5ccc(F)cc45)c3)cc2C(F)(F)F)CC1"
  ASSIGNED CLASS: "no"

Input: Please share the test call associated with CCCCC#Cc1c(I)n(C)c(=O)[nH]c1=O .
Output: yes

Input: Please share the test call associated with O=[N+]([O-])c1cc(NS(=O)(=O)c2ccccc2)ccc1NS(=O)(=O)c1ccccc1 .
Output: no

Input: Please share the test call associated with O=S(=O)(Nc1cc(Sc2cccc3cccnc23)c(O)c2ccccc12)c1ccccc1 .
Output: yes

Input: Please share the test call associated with COc1cc2nc3sc(C(=O)Nc4ccc(C(=O)OC(C)C)cc4)c(C(=O)Nc4ccc(Cl)cc4C)n3c(=O)c2cc1OC .
Output: no

Input: Please share the test call associated with Cc1cccc2c1C[C@@]1(C2=O)C(c2ccc(C(C)(C)C)cc2)=NOS1=O (stereo not given in full) .
Output: no

Input: Please share the test call associated with N#CC1CCc2c(c(-c3ccc4nc(N)sc4c3)nc3ccc4[nH]ncc4c23)C1 (stereo not given) .
Output: no

Input: Please share the test call associated with NNCCc1ccc(NC(=O)CCCc2ccc(C(=O)Nc3ccccc3N)cc2)cc1 .
Output: no

Input: Please share the test call associated with C=C1C(=O)O[C@H]2[C@H]1CC/C(COC(=O)c1ccc(C(=O)O)s1)=C\CC[C@@]1(C)O[C@@H]21 .
Output: no

Input: Please share the test call associated with O=C(Nc1ncc(Cc2ccccc2)s1)c1ccc2c(c1)OCCCO2 .
Output: no

Input: Please share the test call associated with O=C1Nc2ccccc2/C1=C/c1cccn1C(=O)c1ccc(Cl)s1 .
Output: no

Input: Please share the test call associated with COC(=O)N1CC(Oc2ccccn2)C2CC1c1ccccc1O2 (stereo not given) .
Output: no

Input: Please share the test call associated with CCOC(=O)C#Cc1c(C(=O)OCC)nnn1Cc1ccc(C(F)(F)F)cc1 .
Output: no

Input: Please share the test call associated with Cc1ncc(C(=O)Nc2ccc(CN3CCN(C)CC3)c(C(F)(F)F)c2)cc1C#Cc1cnc(N)c2ncccc12 .
Output: yes

Input: Please share the test call associated with Cc1ccccc1Nc1cc(O)c2c(=O)cc(-c3ccccc3)oc2c1 .
Output: no

Input: Please share the test call associated with c1ccc(CCNc2c3ccccc3nc3ccccc23)cc1 .
Output: no

Input: Please share the test call associated with Clc1ccc(-c2cc(-c3ccccc3)nc(NCCNc3ccnc4cc(Cl)ccc34)n2)cc1 .
Output: yes

Input: Please share the test call associated with COc1ccc2c(c1)/C(=N/c1n[nH]c(=S)s1)C(=O)N2 .
Output: no

Input: Please share the test call associated with CC1=C2[C@@H](CC1)[C@]1(C)O[C@@](c3ccccc3)(C[C@H]1OC(=O)CO)[C@H]2OC(=O)/C=C/c1ccccc1 .
Output: no

Input: Please share the test call associated with COc1ccc2c(c1)c(-c1nc(-c3c[nH]c4ncccc34)cs1)cn2CCO .
Output: no
